system: Runx2; experiment: Runx2 activity, 6xOSE2-Luc luciferase reporter in transfected C2C12 cells; type: cell-based, Mouse; settings: Mus musculus, 5.0 μM, 24 hrs, read-out: luciferase activity relative to control set as 1
Here, each record is paired with measured fold induction at 5 µM data.
# print the numeric value only

Example results:
[
  {
    "line.notation": "Cc1cc(C)cc(-c2ccc3c(c2)CN(Cc2ccc(C(=O)Nc4ccccc4N)cc2)C3=O)c1",
    "fold induction at 5 µM": 5.8
  },
  {
    "line.notation": "Cc1c(C(=O)NCCCCCC(=O)Nc2ccccc2N)cccc1-c1ccccc1",
    "fold induction at 5 µM": 3.4
  },
  {
    "line.notation": "Cc1c(C(=O)NCc2ccc(C(=O)Nc3ccccc3N)cc2)cccc1-c1ccccc1",
    "fold induction at 5 µM": 22
  },
  {
    "line.notation": "COc1cc2c(c(-c3cccnc3)c1OC)CN(CCCCCC(=O)Nc1ccccc1N)C2=O",
    "fold induction at 5 µM": 3.4
  },
  {
    "line.notation": "Cc1cc(C(=O)NCCCCCC(=O)Nc2ccccc2N)ccc1-c1cccnc1",
    "fold induction at 5 µM": 16.8
  },
  {
    "line.notation": "COc1cc(C(=O)NCc2ccc(C(=O)Nc3ccccc3N)cc2)c(C)c(-c2cccnc2)c1OC",
    "fold induction at 5 µM": 8.5
  },
  {
    "line.notation": "COc1cc2c(c(-c3cccnc3)c1OC)CN(Cc1ccc(C(=O)Nc3ccccc3N)cc1)C2=O",
    "fold induction at 5 µM": 42.2
  }
]

Enquiry: Could you tell me which fold induction at 5 µM is on file for `Cc1cc(C)cc(-c2ccc3c(c2)CN(CCCCCC(=O)NO)C3=O)c1` ?
Return: 4.7

---

test system: Runx2; assay: Runx2 activity, 6xOSE2-Luc luciferase reporter in transfected C2C12 cells; format: cell-based, Mouse; details: Mus musculus, 10 μM, 24 hrs, read-out: luciferase activity relative to control set as 1
fold induction at 10 µM below 20 gives not met; fold induction at 10 µM at or above it gives met.

Recorded results for 2 compounds are shown here.
[
  {
    "line.notation": "Cc1cc(C(=O)NCCCCCC(=O)Nc2ccccc2N)ccc1-c1ccccc1",
    "subject.of.test": "Runx2",
    "discrete.label": "not met"
  },
  {
    "line.notation": "COc1ccc(-c2c3c(cc(OC)c2OC)C(=O)N(Cc2ccc(C(=O)Nc4ccccc4N)cc2)C3)cc1OC",
    "subject.of.test": "Runx2",
    "discrete.label": "met"
  }
]

Alright, here's another compound for you.
Enquiry: Please check the record `Cc1c(C(=O)NCc2ccc(C(=O)Nc3ccccc3N)cc2)cccc1-c1cncnc1` and state if its fold induction at 10 µM is at or above 20.
Return: met

---

test system: Runx2; assay: Runx2 activity, 6xOSE2-Luc luciferase reporter in transfected C2C12 cells; format: cell-based, Mouse; settings: Mus musculus, 5.0 μM, 24 hrs, read-out: luciferase activity relative to control set as 1
measure: fold induction at 5 µM
# print the numeric value only

Example results:
[
  {
    "compound": "COc1ccc(-c2cccc3c2CN(Cc2ccc(C(=O)Nc4ccccc4N)cc2)C3=O)cc1F [Example 24]",
    "subject.of.test": "Runx2",
    "fold induction at 5 µM": 17.3
  },
  {
    "compound": "COc1ccc(-c2cccc(C(=O)NCCCCCC(=O)Nc3ccccc3N)c2C)c(OC)c1 [Example 82]",
    "subject.of.test": "Runx2",
    "fold induction at 5 µM": 2.5
  },
  {
    "compound": "Cc1cc(C)cc(-c2ccc(C(=O)NCCCCCC(=O)Nc3ccccc3N)cc2C)c1 [Example 91]",
    "subject.of.test": "Runx2",
    "fold induction at 5 µM": 1.5
  },
  {
    "compound": "Cc1cc(C)cc(-c2cccc3c2CN(CCCCCC(=O)NO)C3=O)c1 [Example 41]",
    "subject.of.test": "Runx2",
    "fold induction at 5 µM": 4.6
  },
  {
    "compound": "Cc1c(C(=O)NCc2ccc(C(=O)Nc3ccccc3N)cc2)cccc1-c1cccnc1 [Example 71]",
    "subject.of.test": "Runx2",
    "fold induction at 5 µM": 34.8
  }
]

Enquiry: fold induction at 5 µM of Nc1ccc(-c2cccs2)cc1NC(=O)CCCCCN1Cc2c(cccc2-c2cncnc2)C1=O [Example 47] on Runx2?
Return: 1.2

Enquiry: fold induction at 5 µM of Cc1ccc(-c2cccc3c2CN(Cc2ccc(C(=O)Nc4ccccc4N)cc2)C3=O)cc1F [Example 27] on Runx2?
Return: 17.5

Enquiry: fold induction at 5 µM of COc1cc2c(c(-c3ccc(C(F)(F)F)cc3)c1OC)CN(Cc1ccc(C(=O)Nc3ccccc3N)cc1)C2=O [Example 6] on Runx2?
Return: 18.3

Enquiry: fold induction at 5 µM of COc1cc(C(=O)NCc2ccc(C(=O)Nc3ccccc3N)cc2)c(C)c(-c2cccc(N)c2)c1OC [Example 77] on Runx2?
Return: 11

Enquiry: fold induction at 5 µM of Nc1ccccc1NC(=O)CCCCCN1Cc2c(cccc2-c2ccccc2)C1=O [Example 37] on Runx2?
Return: 2.6

Enquiry: fold induction at 5 µM of COc1cc2c(c(-c3cncnc3)c1OC)CN(Cc1ccc(C(=O)Nc3ccccc3N)cc1)C2=O [Example 8] on Runx2?
Return: 33.4
